Provide the reported growth inhibition by drug plus 177Lu-lilotomab satetraxetan of each item.
- Tested on: U-2932
- test method notes: growth inhibition by drug plus 177Lu-lilotomab satetraxetan (1 - RLU/untreated control) (fraction); higher = stronger inhibition
- run parameters: 10 nM; time (day): 4; 177Lu-lilotomab satetraxetan 1 ug/ml
Give bare numbers.

chemical smiles: O=c1[nH]cc(F)c(=O)[nH]1
observed: 0.00352

Batch request: growth inhibition by drug plus 177Lu-lilotomab satetraxetan for each of the following molecules.
1. COc1cc2c(cc1O)CC[C@@H]1[C@@H]2CC[C@]2(C)[C@@H](O)CC[C@@H]12
2. Cc1ccc(NC(=O)c2ccc(CN3CC[C@H](N(C)C)C3)c(C(F)(F)F)c2)cc1Nc1nccc(-c2cncnc2)n1
3. CCC[C@H](NC(=O)/C(C#N)=C/c1cccc(Br)n1)c1ccccc1

Result:
[-0.0531, 0.0566, 0.1]

Batch request: growth inhibition by drug plus 177Lu-lilotomab satetraxetan for each of the following molecules.
1. O=C(O)CCc1ccc(NCc2cccc(Oc3ccccc3)c2)cc1
2. COc1cc2c(cc1OC)CN(CCc1ccc(NC(=O)c3cccc4c(=O)c5cccc(OC)c5[nH]c34)cc1)CC2
3. CCCCCCCc1ccc(CCc2cccc(O)c2C(=O)O)cc1

Result:
0.038
0.00551
0.0406

Batch request: growth inhibition by drug plus 177Lu-lilotomab satetraxetan for each of the following molecules.
1. Cc1ccc(F)c(NC(=O)Nc2ccc(-c3cccc4[nH]nc(N)c34)cc2)c1
2. Cc1ccc(NC(=O)c2cccc(C(C)(C)C#N)c2)cc1Nc1ccc2ncn(C)c(=O)c2c1

Result:
[0.0206, 0.0624]

----------
- Tested on: U-2932
- test method notes: growth inhibition by drug plus 177Lu-lilotomab satetraxetan (1 - RLU/untreated control) (fraction); higher = stronger inhibition
- run parameters: 10 nM; time (day): 4; 177Lu-lilotomab satetraxetan 1 ug/ml
Counter-ions that a name gives are not always drawn.
Provide the reported growth inhibition by drug plus 177Lu-lilotomab satetraxetan of each item.
Give bare numbers.

# annotated cases, reported growth inhibition by drug plus 177Lu-lilotomab satetraxetan shown
compound: COc1cc2nccc(Oc3ccc(NC(=O)C4(C(=O)Nc5ccc(F)cc5)CC4)cc3)c2cc1OC [XL-184 free base (Cabozantinib)]
observed: 0.083
//
compound: CC(=O)c1c(C)c2cnc(Nc3ccc(N4CCNCC4)cn3)nc2n(C2CCCC2)c1=O
observed: 0.0266
//
compound: CC(c1cc2ccccc2s1)N(O)C(N)=O (stereo not drawn) [Zileuton]
observed: 0.00112
//
compound: COc1cc2ncnc(Nc3ccc(F)c(Cl)c3)c2cc1OCCCN1CCOCC1 [Gefitinib (Iressa)]
observed: -0.0156
//
compound: COc1cc2nccc(Oc3ccc(NC(=O)Nc4cc(C)on4)c(Cl)c3)c2cc1OC [Tivozanib (AV-951)]
observed: 0.0836
//
compound: C[C@@H]1CN(CC(=O)Nc2ccc3c(c2)Cc2cccc(-c4cc(=O)cc(N5CCOCC5)o4)c2S3)C[C@H](C)O1
observed: -0.0257

Batch request: growth inhibition by drug plus 177Lu-lilotomab satetraxetan for each of the following compounds.
1. CN1CC[C@H](c2c(O)cc(O)c3c(=O)cc(-c4ccccc4Cl)oc23)[C@H](O)C1 [Flavopiridol hydrochloride]
2. O=c1cc(-c2cccc3c2Sc2ccccc2S3)oc(N2CCOCC2)c1

Result:
[0.0505, -0.00365]

----------
- Test system: RIVA
- test method notes: growth inhibition by drug plus 177Lu-lilotomab satetraxetan (1 - RLU/untreated control) (fraction); higher = stronger inhibition
- run parameters: 10 nM; time (day): 5; 177Lu-lilotomab satetraxetan 0.5 ug/ml
Provide the reported growth inhibition by drug plus 177Lu-lilotomab satetraxetan of each item.
Answers are plain numbers.

Batch request: growth inhibition by drug plus 177Lu-lilotomab satetraxetan for each of the following molecules.
1. COc1cc(Nc2ncc(F)c(Nc3ccc4c(n3)N(COP(=O)(O)O)C(=O)C(C)(C)O4)n2)cc(OC)c1OC
2. Nc1ccccc1NC(=O)c1ccc(CNc2nccc(-c3cccnc3)n2)cc1
3. CS(=O)(=O)N1CCN(Cc2cc3nc(-c4cccc5[nH]ncc45)nc(N4CCOCC4)c3s2)CC1
4. CCNC(=O)c1noc(-c2cc(C(C)C)c(O)cc2O)c1-c1ccc(CN2CCOCC2)cc1

Result:
0.542
0.579
0.488
0.469

----------
- System: U-2932
- test method notes: growth inhibition by drug plus 177Lu-lilotomab satetraxetan (1 - RLU/untreated control) (fraction); higher = stronger inhibition
- run parameters: 1000 nM; time (day): 5; 177Lu-lilotomab satetraxetan 1 ug/ml
Structures can show the parent of a compound that is named as a salt.
Provide the reported growth inhibition by drug plus 177Lu-lilotomab satetraxetan of each item.
One number for each entry.

# annotated cases, reported growth inhibition by drug plus 177Lu-lilotomab satetraxetan shown
molecule: CCOC(=O)C1=C[C@]2(CC)CCCN3CCc4c(n1c1ccccc41)[C@@H]32
observed: 0.0304

molecule: CCOc1cc2ncc(C#N)c(Nc3ccc(F)c(Cl)c3)c2cc1NC(=O)/C=C/CN(C)C [Pelitinib (EKB-569)]
observed: 0.292

molecule: Cn1nnc2c(C(N)=O)ncn2c1=O [Temozolomide]
observed: 0.126

molecule: O=C(Nc1ccc(OC(F)(F)F)cc1)c1sccc1NCc1ccnc2ccccc12
observed: 0.0489

Batch request: growth inhibition by drug plus 177Lu-lilotomab satetraxetan for each of the following molecules.
1. CCN(CC)CCCCNc1ncc2cc(-c3cc(OC)cc(OC)c3)c(NC(=O)NC(C)(C)C)nc2n1
2. CNNCc1ccc(C(=O)NC(C)C)cc1 [Procarbazine hydrochloride (Matulane)]
3. Cc1ccc([C@@H]2O[C@H](CO)[C@@H](O)[C@H](O)[C@H]2O)cc1Cc1ccc(-c2ccc(F)cc2)s1
4. CCOc1cc2ncc(C#N)c(Nc3ccc(OCc4ccccn4)c(Cl)c3)c2cc1NC(=O)/C=C/CN(C)C

Result:
1. -0.0251
2. 0.126
3. 0.0289
4. 0.00224

----------
- Tested on: RIVA
- test method notes: growth inhibition by drug alone (1 - RLU/untreated control) (fraction); higher = stronger inhibition
- run parameters: 10 nM; time (day): 4; 177Lu-lilotomab satetraxetan 0 ug/ml
Where a name gives a salt, the structure may show the parent alone.
Would you mind labelling by growth inhibition by drug alone? At or over -0.04 is y, under is n.

Take a look at these entries with their results.
compound: COc1c(C)c2c(c(O)c1C/C=C(\C)CCC(=O)OCCN1CCOCC1)C(=O)OC2 [Mycophenolate mofetil (CellCept)]
qualitative label: y
//
compound: COc1cc2ncnc(Nc3ccc(F)c(Cl)c3)c2cc1NC(=O)/C=C/CN1CCCCC1
qualitative label: n
//
compound: OC[C@H]1O[C@@H](n2cnc3c2N=CNC[C@H]3O)C[C@@H]1O
qualitative label: y

Q: Entry CCc1cc(Nc2nccc(-c3c(-c4ccc(OC)c(C(=O)Nc5c(F)cccc5F)c4)nc4ccccn34)n2)c(OC)cc1N1CCC(N2CCN(S(C)(=O)=O)CC2)CC1 : is its growth inhibition by drug alone no less than -0.04?
Result: y

Q: // repeat for Cc1ccc(-n2nc(C(C)(C)C)cc2NC(=O)Nc2ccc(OCCN3CCOCC3)c3ccccc23)cc1 and report
Result: y

Q: // repeat for Nc1nccc(Oc2ccc(NC(=O)c3c[nH]cc(-c4ccc(F)cc4)c3=O)cc2F)c1Cl and report
Result: n

Q: // repeat for Nc1nc(F)nc2c1ncn2[C@@H]1O[C@H](CO)[C@@H](O)[C@@H]1O and report
Result: y

Q: // repeat for CC(=O)O[C@]1(C(C)=O)CC[C@H]2[C@@H]3C[C@H](C)C4=CC(=O)CC[C@]4(C)[C@H]3CC[C@@]21C [Medroxyprogesterone acetate] and report
Result: n

Q: // repeat for CN1CC[C@H](c2c(O)cc(O)c3c(=O)cc(-c4ccccc4Cl)oc23)[C@H](O)C1 [Flavopiridol hydrochloride] and report
Result: n

Q: // repeat for CCn1c(-c2nonc2N)nc2c(C#CC(C)(C)O)ncc(OC[C@H]3CCCNC3)c21 and report
Result: n

Q: // repeat for Cc1[nH]c(/C=C2\C(=O)Nc3ccc(S(=O)(=O)Cc4c(Cl)cccc4Cl)cc32)c(C)c1C(=O)N1CCC[C@@H]1CN1CCCC1 and report
Result: n

Q: // repeat for CN1CCN(c2nc(C3=C(c4c[nH]c5ccccc45)C(=O)NC3=O)c3ccccc3n2)CC1 and report
Result: y

Q: // repeat for CC1(C)CCC(c2ccc(Cl)cc2)=C(CN2CCN(c3ccc(C(=O)NS(=O)(=O)c4ccc(N[C@H](CCN5CCOCC5)CSc5ccccc5)c(S(=O)(=O)C(F)(F)F)c4)cc3)CC2)C1 and report
Result: y

Q: // repeat for C=CC(=O)Nc1cccc(Oc2nc(Nc3ccc(N4CCN(C)CC4)cc3OC)ncc2Cl)c1 and report
Result: n

----------
- Tested on: U-2932
- test method notes: growth inhibition by drug plus 177Lu-lilotomab satetraxetan (1 - RLU/untreated control) (fraction); higher = stronger inhibition
- run parameters: 1000 nM; time (day): 4; 177Lu-lilotomab satetraxetan 1 ug/ml
Counter-ions that a name gives are not always drawn.
Would you mind labelling by growth inhibition by drug plus 177Lu-lilotomab satetraxetan? At or over 0.1 is class 1, under is class 0.

Take a look at these entries with their results.
compound: O=C(NOC[C@H](O)CO)c1ccc(F)c(F)c1Nc1ccc(I)cc1F
assay system: U-2932
qualitative label: class 1
--
compound: N#CC1(c2ccc(NC(=O)c3cccnc3NCc3ccncc3)cc2)CCCC1 [Apatinib (YN968D1)]
assay system: U-2932
qualitative label: class 0
--
compound: Nc1ncn([C@H]2C[C@H](O)[C@@H](CO)O2)c(=O)n1 [Decitabine]
assay system: U-2932
qualitative label: class 1

Q: Entry COc1cc2c(NC3CCN(C)CC3)nc(N3CCCN(C)CC3)nc2cc1OCCCN(C)C : is its growth inhibition by drug plus 177Lu-lilotomab satetraxetan no less than 0.1?
Result: class 0

Q: // repeat for Nc1nc(F)nc2c1ncn2[C@@H]1O[C@H](CO)[C@@H](O)[C@@H]1O [Fludarabine (Fludara)] and report
Result: class 1

Q: // repeat for O=C(NC1CCNCC1)c1n[nH]cc1NC(=O)c1c(Cl)cccc1Cl and report
Result: class 1

Q: // repeat for COc1cc(Nc2ncc(F)c(Nc3ccc4c(n3)N(COP(=O)(O)O)C(=O)C(C)(C)O4)n2)cc(OC)c1OC and report
Result: class 0

Q: // repeat for N#CC(c1ccnc(NCCc2cccnc2)n1)c1nc2ccccc2s1 (centres undefined) [JNK Inhibitor V] and report
Result: class 0

Q: // repeat for C[N+](C)([O-])CCNc1ccc(NCC[N+](C)(C)[O-])c2c1C(=O)c1c(O)ccc(O)c1C2=O [Banoxantrone dihydrochloride] and report
Result: class 1
